# Tested on: Botrytis cinerea (BOC)
# test.name: In-vitro plant fungicide test
# Assay type: cell-based
# experimental.context: Botrytis cinerea, 25 ppm; Table IVa; *=Phytotoxic; read-out: % Control at 25 ppm BOC
Where a name gives a salt, the structure may show the parent alone.
Recorded inhibition of growth at 25 ppm by entry
Response body: numeric value in %, unit text excluded.

Output inhibition of growth at 25 ppm of C[C@@H](OCc1ccccc1)[C@H](N)C(=O)OCC#CI [Compound 11, trifluoroacetate] 0

More entries:
Output inhibition of growth at 25 ppm of C[C@H](NC(=O)OC(C)(C)C)C(=O)N[C@@H](COCc1ccccc1)C(=O)OCC#CI 0

Output inhibition of growth at 25 ppm of C[C@H](NC(=O)OC(C)(C)C)C(=O)N[C@@H](CSCc1ccccc1)C(=O)OCC#CI 0

Output inhibition of growth at 25 ppm of C[C@H](NC(=O)OC(C)(C)C)C(=O)N[C@@H](C)C(=O)OCC#CI 50

* * *

# Tested on: Botrytis cinerea (BOC)
# test.name: In-vitro plant fungicide test
# Assay type: cell-based
# experimental.context: Botrytis cinerea, 25 ppm; Table IVa; *=Phytotoxic; read-out: % Control at 25 ppm BOC
Counter-ions that a name gives are not always drawn.
reported.property: inhibition of growth at 25 ppm (%)
Response body: numeric value in %, unit text excluded.

Worked cases, inhibition of growth at 25 ppm given:
Param request: inhibition of growth at 25 ppm | system Botrytis cinerea (BOC) | item N[C@@H](COCc1ccccc1)C(=O)OCC#CI [Compound 9, trifluoroacetate] 100

Param request: inhibition of growth at 25 ppm | system Botrytis cinerea (BOC) | item CC(C)(C)OC(=O)NCC(=O)OCC#CI [Compound 1] 100

Param request: inhibition of growth at 25 ppm | system Botrytis cinerea (BOC) | item C[C@H](N)C(=O)N[C@@H](CSCc1ccccc1)C(=O)OCC#CI [Compound 20, trifluoroacetate] 0

Param request: inhibition of growth at 25 ppm | system Botrytis cinerea (BOC) | item C[C@H](N)C(=O)N[C@@H](C)C(=O)OCC#CI [Compound 18, trifluoroacetate] 50

Param request: inhibition of growth at 25 ppm | system Botrytis cinerea (BOC) | item C[C@H](N)C(=O)NCC(=O)OCC#CI [Compound 17, trifluoroacetate] 75

Param request: inhibition of growth at 25 ppm | system Botrytis cinerea (BOC) | item C[C@H](N)C(=O)N[C@@H](COCc1ccccc1)C(=O)OCC#CI [Compound 19, trifluoroacetate] 0

More entries:
Param request: inhibition of growth at 25 ppm | system Botrytis cinerea (BOC) | item C[C@H](N)C(=O)N[C@H](C(=O)OCC#CI)[C@@H](C)OCc1ccccc1 [Compound 21, trifluoroacetate] 0

Param request: inhibition of growth at 25 ppm | system Botrytis cinerea (BOC) | item O=C(CNC(=O)c1ccccc1)OCC#CI [Compound 29, N-benzoylglycine iodopropargyl ester] 100

* * *

Recorded inhibition of growth at 1.5 ppm by entry
# Tested on: Phytophthora capsici (PHY)
# test.name: In-vitro plant fungicide test
# Type: cell-based
# experimental.context: Phytophthora capsici; 1.5 ppm; Table IVb; read-out: % Control at (ppm) indicated PHY
Counter-ions that a name gives are not always drawn.
Response body: numeric value in %, unit text excluded.

Worked cases, inhibition of growth at 1.5 ppm given:
Param request: inhibition of growth at 1.5 ppm | system Phytophthora capsici (PHY) | item O=C(CN1C(=O)c2ccccc2C1=O)OCC#CI [Compound 30, N-phthaloylglycine iodopropargyl ester] 100

Param request: inhibition of growth at 1.5 ppm | system Phytophthora capsici (PHY) | item C[C@H](N)C(=O)N[C@@H](COCc1ccccc1)C(=O)OCC#CI [Compound 19, trifluoroacetate] 0

Param request: inhibition of growth at 1.5 ppm | system Phytophthora capsici (PHY) | item CC(=O)NCC(=O)OCC#CI [Compound 28, N-acetylglycine iodopropargyl ester] 0

More entries:
Param request: inhibition of growth at 1.5 ppm | system Phytophthora capsici (PHY) | item CC(C)(C)OC(=O)NCC(=O)OCC#CI [Compound 1] 50

* * *

# Test system: PSH
# test.name: In-vitro plant fungicide test
# Assay type: cell-based
# experimental.context: .4 ppm; Table IVb; read-out: % Control at (ppm) indicated PSH
Counter-ions that a name gives are not always drawn.
Recorded inhibition of growth at 0.4 ppm by entry
Response body: numeric value in %, unit text excluded.

Output inhibition of growth at 0.4 ppm of C[C@H](N)C(=O)N[C@@H](COCc1ccccc1)C(=O)OCC#CI [Compound 19, trifluoroacetate] 0

Output inhibition of growth at 0.4 ppm of CC(=O)NCC(=O)OCC#CI [Compound 28, N-acetylglycine iodopropargyl ester] 0

Output inhibition of growth at 0.4 ppm of O=C(CN1C(=O)c2ccccc2C1=O)OCC#CI [Compound 30, N-phthaloylglycine iodopropargyl ester] 100

Output inhibition of growth at 0.4 ppm of CC(C)(C)OC(=O)NCC(=O)OCC#CI [Compound 1] 0

* * *

# Tested on: Pseudomonas fluorescens (PSFL)
# test.name: Minimum inhibitory concentration (MIC), broth two-fold serial dilution test
# experimental.context: Pseudomonas fluorescens, read-out: MIC (G-) PSFL, M9G (minimal salts media with glucose); Table IIIc, iodopropargyl esters of peptides
Counter-ions that a name gives are not always drawn.
reported.property: MIC (µg/mL)
Response body: numeric value in µg/mL, unit text excluded.

Output MIC of C[C@H](N)C(=O)N[C@H](C(=O)OCC#CI)[C@@H](C)OCc1ccccc1 [Compound 21, trifluoroacetate] 100

More entries:
Output MIC of C[C@H](NC(=O)OC(C)(C)C)C(=O)NCC(=O)OCC#CI 50

Output MIC of C[C@H](N)C(=O)N[C@@H](C)C(=O)OCC#CI [Compound 18, trifluoroacetate] 100

* * *

Recorded inhibition of growth at 0.8 ppm by entry
# Test system: Piricularia oryzae (PIR)
# test.name: microbe, parasite or virus in culture
# Format: cell-based
# experimental.context: .8 ppm; read-out: % Control at (ppm) indicated PIR
Where a name gives a salt, the structure may show the parent alone.
Response body: numeric value in %, unit text excluded.

Worked cases, inhibition of growth at 0.8 ppm given:
Output inhibition of growth at 0.8 ppm of CC(=O)NCC(=O)OCC#CI 0

Output inhibition of growth at 0.8 ppm of C[C@H](N)C(=O)N[C@@H](COCc1ccccc1)C(=O)OCC#CI [Compound 19, trifluoroacetate] 0

Output inhibition of growth at 0.8 ppm of O=C(CN1C(=O)c2ccccc2C1=O)OCC#CI 100

Now examine the next entry.
Output inhibition of growth at 0.8 ppm of CC(C)(C)OC(=O)NCC(=O)OCC#CI 0

* * *

Recorded CRES growth by entry
# Test system: 8 FUNGI
# test.name: Microbicides secondary test against 8 fungi on Mycophile Agar at pH 5.0 (Table VI)
# Format: cell-based
# Parameters: key: 1= no growth; 0= growth of the indicated fungi at dose indicated in ppm
# experimental.context: Cladosporium resinae, 1.0 PPM
Quick one: just the number, no unit, thanks!

Output CRES growth of CC(=O)NCC(=O)OCC#CI 0

More entries:
Output CRES growth of C/C=C/C=C/C(=O)NCC(=O)OCC#CI 0

Output CRES growth of O=CNCC(=O)OCC#CI 0

Output CRES growth of O=C(CN1C(=O)c2ccccc2C1=O)OCC#CI 0

Output CRES growth of O=C(CNC(=O)c1ccccc1)OCC#CI 0

Output CRES growth of O=C(CNC(=O)OCc1ccccc1)OCC#CI 0

Output CRES growth of CCCCCCCC(=O)NCC(=O)OCC#CI 0

* * *

Recorded MIC by entry
# System: THREE FUNGI
# test.name: MIC test against three fungi in Mycophile Broth, pH 5.0, read after 8 days (Table VII)
# Format: cell-based
# experimental.context: 192 h, Aspergillus niger, serial dilutions from 50 ppm, read after 8 days of incubation, read-out: MIC ANIG

Worked cases, MIC given:
Output MIC of C[C@H](NC(=O)OC(C)(C)C)C(=O)N[C@@H](CSCc1ccccc1)C(=O)OCC#CI > 50 µg/mL

Output MIC of C[C@@H](OCc1ccccc1)[C@H](NC(=O)OC(C)(C)C)C(=O)OCC#CI > 50 µg/mL

More entries:
Output MIC of C[C@H](NC(=O)OC(C)(C)C)C(=O)N[C@H](C(=O)OCC#CI)[C@@H](C)OCc1ccccc1 > 50 µg/mL

* * *

# Tested on: Aureobasidium pullulans (APUL)
# test.name: Minimum inhibitory concentration (MIC), broth two-fold serial dilution test
# Format: cell-based
# experimental.context: Aureobasidium pullulans, M9G (minimal salts media with glucose); Table IIIa; read-out: MIC (F) APUL
reported.property: MIC

Worked cases, MIC given:
Output MIC of CC(C)(C)OC(=O)N[C@@H](COCc1ccccc1)C(=O)OCC#CI < 0.8 µg/mL

Output MIC of C[C@@H](OCc1ccccc1)[C@H](NC(=O)OC(C)(C)C)C(=O)OCC#CI < 0.8 µg/mL

Now examine the next entry.
Output MIC of C[C@@H](NC(=O)OC(C)(C)C)C(=O)OCC#CI < 4 µg/mL
